Exercise: state measured MIC for each of the molecules provided.
system: Staphylococcus aureus; assay: In Vitro Agar Screening Tests (Example 5); format: cell-based; settings: S. aureus, nutrient agar, 37° C, read-out: Minimum Inhibitory Concentration
Kindly provide the numeric value in µg/mL only, without the unit symbol.

Fill blank: measured MIC of the molecule N#CSCSC(=S)OCCOc1ccccc1Cl is ____.
10

# lookup: MIC of CCSCCOC(=S)SCSC#N
5

I'd like to know its MIC. The molecule in question is N#CSCSC(=S)OCCSc1ccccc1
5

So what does the record say about MIC for Cc1ccc(SCCOC(=S)SCSC#N)cc1 ?
5

MIC for N#CSCSC(=S)OCCOc1ccc(Cl)cc1Cl ?
5

If you can, please state the reported MIC value of Cc1ccccc1OCCOC(=S)SCSC#N .
5

Form field: reported MIC of COCCOC(=S)SCSC#N
50

Requested read-out: MIC. Entry: N#CSCSC(=S)OCCOc1ccc(Cl)cc1
5

Name the recorded MIC for CCCCOCCOC(=S)SCSC#N .
5

Fill in: MIC of N#CSCSC(=S)OCCOc1ccccc1 is ___
10

// query MIC value for entry Cc1ccc(OCCOC(=S)SCSC#N)cc1
10

# lookup: MIC of CCCCOCCOCCOC(=S)SCSC#N
5

Form field: reported MIC of COc1ccc(OCCOC(=S)SCSC#N)cc1
5

Origin of measurements: patent US4078079A
